- tgt: Protein phosphatase EYA2 (Homo sapiens)
- protocolDescription: Inhibitors of Eya2ED: Hit Confirmation in Primary Screen
- assaySetup: Recombinant Eya2ED, OMFP fluorescence phosphatase assay; series mostly up to 76.9 µM
Records with an inconclusive call do not appear. Calls of active or inactive are those of the source. Calls come from the whole dose curve; as a rule, active = well fitted curve in the direction sought with a large enough effect; inconclusive = small, poorly fitted or top-dose-only effect, or another doubt; inactive = no such curve, though single readings can be large or run the other way.
Can you answer with just one of these options? 1 (yes) (active), 0 (no) (inactive)

These solved cases illustrate the format of a correct answer.
>>> classification("Cc1ccc(CCNC(=O)c2cc(C)nn2-c2ccccc2)cc1")
"0 (no)"
>>> classification("O=C(CSc1c2c(nc3cc(Cl)ccc13)CCCC2)NCc1ccco1")
"0 (no)"
>>> classification("O=C(O)/C=C/C(=O)Nc1ccc2nccnc2c1")
"0 (no)"

Alright, here's another compound for you.
Asked: Which result was noted for this compound in the test: CN(CCCC(=O)N1CCN(c2ncccn2)CC1)S(=O)(=O)c1ccc(F)cc1
Given back: 0 (no)

Attribution: PubChem BioAssay AID504895
